Would you kindly list pIC50 for each of these compounds?
- target.or.system: human P2X7 receptor (Homo sapiens, UniProt Q99572, R270H/Y155H)
- assay.name: Evaluation of human P2X7 receptor inhibitory activity (Yo-Pro uptake, BzATP stimulation, FLIPR TETRA)
- Type: cell-based
- test.settings: 1321N1 cells stably expressing human P2X7 receptor; BzATP stimulation, Yo-Pro uptake; read-out: IC50 (antagonistic activity for the human P2X7 receptor), class symbol
pIC50: −log10 of the molar value.

Q: Dear colleague, I am looking for the recorded pIC50 of the following compound: COc1cn(Cc2ccc(F)c(F)c2)c(Nc2cc(Cl)c(Cl)cc2C)nc1=O [Compound I-0518]
A: 7.00 to 8.00

Q: Ok, now COc1cn(Cc2cccc(Cl)c2)c(Nc2cccc(Cl)c2C)nc1=O [Compound I-0126]
A: 7.00 to 8.00

Q: Entry to check: COc1cn(Cc2ccccc2)c(NCc2ccccc2Oc2ccc(C)cc2)nc1=O [Compound I-0066]
A: 6.00 to 6.30

Q: Also COc1cn(Cc2cc(F)cc(F)c2)c(Nc2cc(Cl)c(Cl)cc2C)nc1=O [Compound I-0541] ?
A: 7.00 to 8.00

----------
Assignment: determine reported IC50 for the given compounds.
- target.or.system: human P2X7 receptor (Homo sapiens, UniProt Q99572, R270H/Y155H)
- assay.name: Evaluation of human P2X7 receptor inhibitory activity (Yo-Pro uptake, BzATP stimulation, FLIPR TETRA)
- Assay type: cell-based
- test.settings: antagonistic activity for the human P2X7 receptor; read-out: IC50

Q: Recall the recorded IC50 for CCc1cc2c(cc1Nc1nc(=O)c(OC)cn1Cc1cc(F)cc(F)c1)OCCO2 with human P2X7 receptor (Homo sapiens, UniProt Q99572, R270H/Y155H) and state it.
A: 10 to 100 nM

Q: Further, for COCc1cccc(Nc2nc(=O)c(F)cn2Cc2cc(F)c(F)c(F)c2)c1C ?
A: < 10 nM

Q: Next compound up: Cc1cc2[nH]ccc2cc1Nc1nc(=O)c(F)cn1Cc1ccc(F)c(F)c1
A: < 10 nM

Q: Input CCc1ccc(Br)cc1Nc1nc(=O)c(OC)cn1Cc1ccccc1
A: < 10 nM

----------
- target.or.system: human P2X7 receptor (Homo sapiens, UniProt Q99572, R270H/Y155H)
- assay.name: Evaluation of human P2X7 receptor inhibitory activity (Yo-Pro uptake, BzATP stimulation, FLIPR TETRA)
- Type: cell-based
- test.settings: 1321N1 cells stably expressing human P2X7 receptor; BzATP stimulation, Yo-Pro uptake; read-out: IC50 (antagonistic activity for the human P2X7 receptor), class symbol
pIC50: −log10 of the molar value.
measured.metric: pIC50

Q: Provide the documented pIC50 with human P2X7 receptor (Homo sapiens, UniProt Q99572, R270H/Y155H) as the system for COc1cn(Cc2ccccc2)c(Nc2cc(C)cc3[nH]ccc23)nc1=O
A: 7.00 to 8.00

Q: Same for COc1cn(Cc2cc(C)cc(F)c2)c(Nc2cccc(Cl)c2C)nc1=O [Compound I-0450]
A: 7.00 to 8.00

Q: For COc1cn(Cc2ccccc2COC(F)F)c(Nc2cccc(Cl)c2C)nc1=O [Compound I-0458] then?
A: 7.00 to 8.00

Q: Now the compound COc1cn(Cc2cc(F)c(F)c(F)c2)c(Nc2ccc(C)cc2C)nc1=O
A: > 8.00

Q: Field entry: COc1cn(Cc2ccc(F)c(Cl)c2)c(Nc2cc3c(cc2C)OCCO3)nc1=O
A: 7.00 to 8.00
